Molecular target: Mitogen-activated protein kinase 1 (Homo sapiens, UniProt P28482)
Sequence (P28482 whole entry): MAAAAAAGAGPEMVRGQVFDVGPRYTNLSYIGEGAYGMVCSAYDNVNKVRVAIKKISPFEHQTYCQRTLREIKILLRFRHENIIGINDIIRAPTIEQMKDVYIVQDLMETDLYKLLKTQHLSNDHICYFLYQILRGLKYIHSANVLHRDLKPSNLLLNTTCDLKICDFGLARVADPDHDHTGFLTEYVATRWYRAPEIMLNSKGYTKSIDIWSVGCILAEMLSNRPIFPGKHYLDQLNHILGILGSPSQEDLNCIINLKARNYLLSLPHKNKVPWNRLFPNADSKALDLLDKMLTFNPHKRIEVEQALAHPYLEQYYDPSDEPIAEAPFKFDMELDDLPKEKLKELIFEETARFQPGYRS
Test: Inhibition of mitogen activated protein kinase (ERK2)
quantity: IC50

Exam item: Supply IC50 value. Item: `OCCCNc1cncc(-c2cncc(Nc3cccc(Cl)c3)n2)c1`
Marked response: > 10 µM

====

Biological target: Vascular endothelial growth factor receptor 2 (Homo sapiens)
Sequence (P35968 whole entry): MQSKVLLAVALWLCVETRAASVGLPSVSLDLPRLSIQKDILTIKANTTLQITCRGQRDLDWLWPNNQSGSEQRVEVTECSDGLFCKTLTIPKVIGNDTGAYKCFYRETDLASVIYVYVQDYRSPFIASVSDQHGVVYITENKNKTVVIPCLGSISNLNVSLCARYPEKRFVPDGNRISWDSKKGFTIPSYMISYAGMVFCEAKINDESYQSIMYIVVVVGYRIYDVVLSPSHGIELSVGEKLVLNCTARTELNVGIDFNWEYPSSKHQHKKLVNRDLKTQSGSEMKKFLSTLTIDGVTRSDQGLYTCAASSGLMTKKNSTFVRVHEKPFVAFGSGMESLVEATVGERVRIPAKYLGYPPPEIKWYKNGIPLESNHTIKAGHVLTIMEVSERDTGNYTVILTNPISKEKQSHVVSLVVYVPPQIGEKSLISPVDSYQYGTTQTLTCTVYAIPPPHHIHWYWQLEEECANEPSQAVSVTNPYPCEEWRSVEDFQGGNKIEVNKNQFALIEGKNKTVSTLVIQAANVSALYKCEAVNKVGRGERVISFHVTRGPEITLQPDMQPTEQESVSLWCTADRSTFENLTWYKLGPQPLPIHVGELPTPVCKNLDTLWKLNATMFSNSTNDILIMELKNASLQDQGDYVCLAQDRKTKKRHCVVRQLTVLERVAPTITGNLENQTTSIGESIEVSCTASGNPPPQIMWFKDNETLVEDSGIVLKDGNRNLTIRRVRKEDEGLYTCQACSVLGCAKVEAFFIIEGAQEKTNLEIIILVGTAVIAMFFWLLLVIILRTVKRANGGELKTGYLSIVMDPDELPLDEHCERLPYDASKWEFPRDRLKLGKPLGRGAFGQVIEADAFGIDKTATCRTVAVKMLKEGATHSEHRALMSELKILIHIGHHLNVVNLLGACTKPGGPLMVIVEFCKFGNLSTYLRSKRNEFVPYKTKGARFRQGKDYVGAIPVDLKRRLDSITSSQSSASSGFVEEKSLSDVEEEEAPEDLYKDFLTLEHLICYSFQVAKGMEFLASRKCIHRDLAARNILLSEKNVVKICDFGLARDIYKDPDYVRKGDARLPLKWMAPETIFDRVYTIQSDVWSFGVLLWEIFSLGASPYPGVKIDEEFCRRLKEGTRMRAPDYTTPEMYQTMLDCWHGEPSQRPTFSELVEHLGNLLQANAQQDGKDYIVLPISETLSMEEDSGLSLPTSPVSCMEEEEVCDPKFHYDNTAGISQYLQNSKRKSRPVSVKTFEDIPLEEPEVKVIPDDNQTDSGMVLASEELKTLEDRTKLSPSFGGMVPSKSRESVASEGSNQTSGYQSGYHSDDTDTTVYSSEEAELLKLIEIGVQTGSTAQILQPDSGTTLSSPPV
quantity: pIC50
# pIC50 = -log10(concentration in molar units)

Exam item: Supply pIC50 value. Item: `OCCCNc1cc(-c2cncc(Nc3cccc(Cl)c3)n2)ccn1`
Marked response: 6.30

Exam item: Supply pIC50 value. Item: `OCCCNc1cnccc1-c1cncc(Nc2cccc(Cl)c2)n1`
Marked response: 6.12

====

quantity: IC50

Exam item: Report its IC50 with Protein kinase C beta type (Homo sapiens) as the test system: `OCCCNc1cncc(-c2cncc(Nc3cccc(Cl)c3)n2)c1`
Sequence (P05771 whole entry): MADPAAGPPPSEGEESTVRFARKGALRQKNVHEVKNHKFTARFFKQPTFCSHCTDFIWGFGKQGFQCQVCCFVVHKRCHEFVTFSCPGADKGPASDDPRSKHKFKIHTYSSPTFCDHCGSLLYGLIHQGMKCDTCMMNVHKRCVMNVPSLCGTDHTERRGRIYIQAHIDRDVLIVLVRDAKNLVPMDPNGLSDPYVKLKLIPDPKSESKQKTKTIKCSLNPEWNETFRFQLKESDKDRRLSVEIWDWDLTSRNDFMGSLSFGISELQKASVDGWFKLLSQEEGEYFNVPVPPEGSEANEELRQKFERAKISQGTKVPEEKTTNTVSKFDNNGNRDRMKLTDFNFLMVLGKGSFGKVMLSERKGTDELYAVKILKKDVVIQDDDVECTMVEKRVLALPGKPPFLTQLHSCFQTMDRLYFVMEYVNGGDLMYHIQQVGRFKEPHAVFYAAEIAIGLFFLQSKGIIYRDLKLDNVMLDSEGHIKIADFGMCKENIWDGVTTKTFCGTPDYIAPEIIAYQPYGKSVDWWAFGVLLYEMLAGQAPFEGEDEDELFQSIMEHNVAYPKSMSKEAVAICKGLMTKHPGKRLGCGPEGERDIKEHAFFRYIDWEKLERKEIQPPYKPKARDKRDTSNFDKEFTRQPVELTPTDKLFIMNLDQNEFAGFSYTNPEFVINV
Marked response: > 10 µM

====

Record form. Attribute: pIC50. Fill in for each entry.
Biological target: Cyclin-dependent kinase 1 (Homo sapiens, UniProt P06493)
Sequence (P06493 whole entry): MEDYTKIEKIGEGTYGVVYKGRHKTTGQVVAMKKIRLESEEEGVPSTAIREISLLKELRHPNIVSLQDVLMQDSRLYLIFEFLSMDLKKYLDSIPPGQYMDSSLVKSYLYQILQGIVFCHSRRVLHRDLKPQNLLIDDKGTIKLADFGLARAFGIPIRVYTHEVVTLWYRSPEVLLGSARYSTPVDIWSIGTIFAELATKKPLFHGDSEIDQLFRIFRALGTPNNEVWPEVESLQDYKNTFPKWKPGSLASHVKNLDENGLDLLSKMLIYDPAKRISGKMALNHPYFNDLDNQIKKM
pIC50: −log10 of the molar value.

Exam item: Supply pIC50 value. Item: `OCCCNc1cncc(-c2ncc(Nc3cccc(Cl)c3)cn2)c1`
Marked response: < 5.00

Exam item: Supply pIC50 value. Item: `OCCCNc1ccc(-c2cncc(Nc3cccc(Cl)c3)n2)nc1`
Marked response: < 5.00

Exam item: Supply pIC50 value. Item: `OCCCNc1cccc(-c2cncc(Nc3cccc(Cl)c3)n2)n1`
Marked response: < 5.00

Source listed as ChEMBL document CHEMBL1142725.
